Assay: Cytotoxicity (CC50) in Vero cells
Details: African green monkey
Readout Type: CC50 at 24 h

Quick note, CC50 at 24 h for Cc1cccc(C)c1OCC(=O)N[C@@H](Cc1ccccc1)[C@@H](O)C[C@H](Cc1ccccc1)NC(=O)[C@H](C(C)C)N1CCCNC1=O [Lopinavir, lopinavir, reference compound] landed at > 50 µM

====

Target: SARS-CoV-2 M^PRO (Severe acute respiratory syndrome coronavirus 2)
Assay: biochemical
Format: biochemical
Conditions: In vitro potency data; 30 min pre-incubation, 25 nM M^pro, 25 µM substrate; read-out: IC50
pIC50: −log10 of the molar value.
Cut-off 6 on pIC50, inclusive. At or above means criterion met; below means criterion not met.

# count of solved cases: 5
O=C(NC1CCC(F)(F)CC1)C(c1ccnnc1)N(C(=O)CCl)c1ccc(-c2ccno2)cc1 (stereo not drawn) [INSCoV-537K]    criterion met
CC1(NC(=O)C(c2cncnc2)N(C(=O)CCl)c2ccc(-c3cnco3)cc2)COC1 (stereo not drawn) [INSCoV-600E]    criterion met
O=C(NC1CCCCC1)C(c1cccnc1)N(CCc1ccccc1F)C(=O)CCl (stereo not drawn) [INSCoV-503G]    criterion not met
O=C(NC1CCC(F)(F)CC1)C(c1ccnnc1)N(C(=O)CCl)c1ccc(-c2cncs2)cc1 (stereo not drawn) [INSCoV-601F]    criterion met
O=C(NC1CCC(F)(F)CC1)C(c1cncnc1)N(C(=O)CCl)c1ccc(-c2ccno2)cc1 (stereo not drawn) [INSCoV-600J]    criterion met

Q: Evaluate O=C(NC1CCS(=O)(=O)CC1)C(c1cnccn1)N(C(=O)CCl)c1ccc(-c2cnco2)cc1 (stereo not drawn) [INSCoV-501M] : pIC50 at minimum 6?
Result: criterion met

Q: Evaluate CC1(C)OCc2cc(N(C(=O)CCl)C(C(=O)Nc3cncc4ccccc34)c3ccno3)cnc21 (stereo not drawn) [INSCoV-704] : pIC50 at minimum 6?
Result: criterion not met

Q: Evaluate CC(C(=O)NC1CCC(F)(F)CC1)(c1cncnc1)N(C(=O)CCl)c1ccc(-c2ccno2)cc1 (single isomer, unassigned) [INSCoV-601P(1B)] : pIC50 at minimum 6?
Result: criterion not met

Q: Evaluate O=C(NC1CCCCC1)C(c1cccnc1)N(CCc1cccc(F)c1)C(=O)CCl (stereo not drawn) [INSCoV-558] : pIC50 at minimum 6?
Result: criterion met

Q: Evaluate N#Cc1cc(OC(F)(F)F)ccc1N(C(=O)C(F)Cl)C(C(=O)NC1CCC(F)(F)CC1)c1cncnc1 (mixture of isomers) [INSCoV-517C] : pIC50 at minimum 6?
Result: criterion met

Q: Evaluate Cc1cc(-c2cnco2)ccc1N(C(=O)CCl)C(C(=O)NC1CCCCC1)c1cncnc1 (stereo not drawn) [INSCoV-501G] : pIC50 at minimum 6?
Result: criterion met

Q: Evaluate O=C(NC1CCC(F)(F)CC1)C(c1cnccn1)N(C(=O)CCl)c1ccc(-c2cncs2)cc1 (single isomer, unassigned) [INSCoV-601G(1)] : pIC50 at minimum 6?
Result: criterion met

Q: Evaluate CC(C(=O)NC1CCC(F)(F)CC1)(c1cnccn1)N(C(=O)CCl)c1ccc(-c2ccns2)cc1 (single isomer, unassigned) [INSCoV-601N(2)] : pIC50 at minimum 6?
Result: criterion not met

Q: Evaluate O=C(N[C@H]1CCOC1)C(c1cnccn1)N(C(=O)CCl)c1ccc(-c2ccno2)cc1 (mixture of isomers) [INSCoV-601Q] : pIC50 at minimum 6?
Result: criterion met

Q: Evaluate O=C(NC1CCS(=O)(=O)CC1)C(c1cncnc1)N(C(=O)CCl)c1ccc(-c2cnco2)cc1 (stereo not drawn) [INSCoV-501B] : pIC50 at minimum 6?
Result: criterion met

Q: Evaluate O=C(NC1CCC(F)(F)CC1)[C@H](c1cncnc1)N(C(=O)[C@H](F)Cl)c1ccc(-c2cncs2)cc1 (single isomer, unassigned) [INSCoV-614(1A)] : pIC50 at minimum 6?
Result: criterion not met

Q: Evaluate O=C(NC1CCC(F)(F)CC1)[C@H](c1cncnc1)N(C(=O)[C@H](F)Cl)c1ccc(-c2cncs2)cc1 (single isomer, unassigned) [INSCoV-614(2B)] : pIC50 at minimum 6?
Result: criterion not met

Q: Evaluate C=CS(=O)(=O)N(c1ccc(C(C)(C)C)cc1)[C@@H](C(=O)NC1CCCCC1)c1cccnc1 [INSCoV-110-1] : pIC50 at minimum 6?
Result: criterion not met
